Provide the reported self-cleavage of each item.
B1: CPEB3 Ribozyme (parent)
chain: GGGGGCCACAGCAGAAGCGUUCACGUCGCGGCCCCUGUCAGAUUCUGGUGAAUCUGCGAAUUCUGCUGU

- Variants of: B1
- ASSAY PROCEDURE: self-cleavage, relative activity (ratio to wild type); higher = more cleavage; co-transcriptional
Provide a numeric answer; units are not to be included.

Exercise: Please report the measured self-cleavage for A23U U55A
Key: 0.877

Exercise: Please report the measured self-cleavage for C7G U43C
Key: 0.231

Exercise: Please report the measured self-cleavage for G19A G47A
Key: 0.122

Exercise: Please report the measured self-cleavage for C34A U38A
Key: 0.846

Exercise: Please report the measured self-cleavage for G11C C12U
Key: 0.452

Exercise: Please report the measured self-cleavage for G68U
Key: 1.01

Exercise: Please report the measured self-cleavage for A23G C34G
Key: 0.243

Exercise: Please report the measured self-cleavage for G28C U38A
Key: 0.222

Exercise: Please report the measured self-cleavage for C12A U69G
Key: 0.925

Exercise: Please report the measured self-cleavage for G19A U69G
Key: 0.249

Exercise: Please report the measured self-cleavage for G31A C32G
Key: 0.259

Exercise: Please report the measured self-cleavage for U46A
Key: 1

Exercise: Please report the measured self-cleavage for C39G U55G
Key: 0.863

Exercise: Please report the measured self-cleavage for C34U G68U
Key: 1.04

Exercise: Please report the measured self-cleavage for U44G U49A
Key: 0.935

Exercise: Please report the measured self-cleavage for C6U C32A
Key: 0.177

Exercise: Please report the measured self-cleavage for G14A G31U
Key: 0.207

Data origin, for the record: the RNAGym collection of RNA variant scans (doi:10.7554/elife.80360)
